Consider the following molecules; for each one, report its IL6.
tested on: human peripheral blood mononuclear cells (PBMC); experiment: IL-6 secretion by human PBMC (ELISA); type: cell-based; details: 5 μg/ml, 24 h
API: value field is a number in pg/mL; no unit string.

Tell me its IL6 given CCCCCCCCCCCC(=O)O[C@H](CCCCCCCCCCC)CC(=O)N[C@H]1[C@H](OC[C@H]2O[C@H](OCC(O)CO)[C@H](NC(=O)C[C@H](O)CCCCCCCCCCC)[C@@H](O)[C@@H]2O)O[C@H](CO)[C@@H](OP(=O)(O)O)[C@@H]1O (some centres unmarked) [compound 19] as the entry.
95.9

Tell me its IL6 given CCCCCCCCCCCC(=O)O[C@H](CCCCCCCCCCC)CC(=O)N[C@H]1[C@H](OC[C@H]2O[C@H](O)[C@H](NC(=O)C[C@H](O)CCCCCCCCCCC)[C@@H](O)[C@@H]2O)O[C@H](CO)[C@@H](OP(=O)(O)O)[C@@H]1O [compound 16] as the entry.
473.3
